Below: a set of entries, each annotated with reported PBM binding z-score.
- Tested on: PPARg:RXRa 270nM:90nM, anti-RXR (NR concentration 270 nM, RXRa partner concentration 90 nM)
- Assay: PBM binding z-score (relative to random genomic background probes); higher = stronger binding; sequences stand for … in GC…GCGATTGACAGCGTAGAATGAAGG

>  <Residues>
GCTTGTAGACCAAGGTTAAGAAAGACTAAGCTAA

>  <PBM binding z-score>
1.61

$$$$

Answer with the recorded PBM binding z-score of TGAATGAGGTTATAACATCAGGGAACGTTGCAAA only. 1.54

Answer with the recorded PBM binding z-score of CGTCCAAGGTCAAGGTCAGTGAGAGAGACTCGAA only. 6.13

Answer with the recorded PBM binding z-score of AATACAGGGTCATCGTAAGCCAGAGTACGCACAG only. 5.96

Answer with the recorded PBM binding z-score of TCATATAGGTAAATGCTAGGTGAAAATCCGATCT only. 1.95

Answer with the recorded PBM binding z-score of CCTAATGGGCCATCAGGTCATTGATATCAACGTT only. 2.54

Answer with the recorded PBM binding z-score of GGAACGAGCGCATTCGAGTTGATAGCATGGCGAT only. -1.09

Answer with the recorded PBM binding z-score of CGAACGAGGGCATGAGTTGATAGCAAATGCCGAT only. 1.57

Answer with the recorded PBM binding z-score of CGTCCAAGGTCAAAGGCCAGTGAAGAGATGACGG only. 6.54

---

- System: LXRa:RXRa (NR concentration 270 nM, RXRa partner concentration 90 nM)
- Assay: PBM binding z-score (relative to random genomic background probes); higher = stronger binding; sequences stand for … in GC…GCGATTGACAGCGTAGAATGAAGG
Hi, to clarify the labels: true (1) covers PBM binding z-score from 2 upward, false (0) covers anything below 2.

>  <Residues>
CCGACTGGGGCAGAAAGTTTACCATACCATCCGG

>  <Measured on>
LXRa:RXRa (NR concentration 270 nM, RXRa partner concentration 90 nM)

>  <Qualitative label>
false (0)

$$$$
>  <Residues>
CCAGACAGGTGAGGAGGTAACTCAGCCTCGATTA

>  <Measured on>
LXRa:RXRa (NR concentration 270 nM, RXRa partner concentration 90 nM)

>  <Qualitative label>
false (0)

$$$$
>  <Residues>
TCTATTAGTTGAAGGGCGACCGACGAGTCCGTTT

>  <Measured on>
LXRa:RXRa (NR concentration 270 nM, RXRa partner concentration 90 nM)

>  <Qualitative label>
false (0)

$$$$
>  <Residues>
ACAGACAGGTGAGTGAAGGGAACTCAGCTGGACG

>  <Measured on>
LXRa:RXRa (NR concentration 270 nM, RXRa partner concentration 90 nM)

>  <Qualitative label>
false (0)

$$$$

# bool: PBM binding z-score of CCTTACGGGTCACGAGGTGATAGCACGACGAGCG >= 2 true (1)

# bool: PBM binding z-score of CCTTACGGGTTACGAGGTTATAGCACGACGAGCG >= 2 true (1)

---

- System: RARa:RXR (NR concentration 270 nM, RXRa partner concentration 90 nM)
- Assay: PBM binding z-score (relative to random genomic background probes); higher = stronger binding; sequences stand for … in GC…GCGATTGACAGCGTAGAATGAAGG
Below: a set of entries, each annotated with reported PBM binding z-score.
// response body must contain only the number

Observe how each entry below is paired with its result.
>  <Residues>
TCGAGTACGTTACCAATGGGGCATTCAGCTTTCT

>  <Experimental value>
0.193

$$$$
>  <Residues>
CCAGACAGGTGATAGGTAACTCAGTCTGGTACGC

>  <Experimental value>
0.152

$$$$
>  <Residues>
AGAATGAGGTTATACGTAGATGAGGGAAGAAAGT

>  <Experimental value>
1.96

$$$$
>  <Residues>
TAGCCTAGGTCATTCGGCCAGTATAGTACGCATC

>  <Experimental value>
2

$$$$
>  <Residues>
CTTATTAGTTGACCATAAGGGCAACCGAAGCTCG

>  <Experimental value>
0.781

$$$$

Answer with the recorded PBM binding z-score of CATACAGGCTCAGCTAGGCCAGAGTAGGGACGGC only. -0.727

Answer with the recorded PBM binding z-score of ATCTCTAGGTAAGACTCAGTTCAGTGCAGAACGC only. 0.346

Answer with the recorded PBM binding z-score of TCTCGGAGGACACGAAGGTCAGAGCGTTCCAGAG only. 1.84

Answer with the recorded PBM binding z-score of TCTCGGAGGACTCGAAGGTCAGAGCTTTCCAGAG only. 1.48

Answer with the recorded PBM binding z-score of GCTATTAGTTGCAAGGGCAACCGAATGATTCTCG only. -0.00266

Answer with the recorded PBM binding z-score of ATCGAAAGGTCGCCGAGGTGAGTATACACCGTTT only. 4.03

Answer with the recorded PBM binding z-score of AGTCAAAGTTCAGGACGAGGAAACGTAAAGCACG only. 2.26

Attribution: the supplement of paper PMC6555819
